Here the recorded residual percentage in rat plasma is given for each entry.
# test_description: Stability in rat plasma
# Type: in vitro ADME
# test_context: after 4 hours, 37° C.
endpoint_label: residual percentage in rat plasma (%)

1) O=C(NO)c1ccc(Cn2nnc(-c3ccc(C(F)(F)F)cc3)n2)cc1    77
2) O=C(NO)c1cc(F)c(Cc2noc(-c3ccccc3)n2)c(F)c1    89
3) COc1ccc(-c2nnn(Cc3ccc(C(=O)NO)cc3)n2)cc1OCc1ccccc1    79
4) O=C(NO)c1ccc(Cn2nnnc2Cc2ccccc2)cc1    6
5) O=C(NO)c1cc(F)c(Cn2nnc(Cc3ccccn3)n2)c(F)c1.O=C(O)C(F)(F)F    76
6) Cn1c(Sc2c(F)cc(C(=O)NO)cc2F)nnc1C(C)(C)c1cccnc1    75

###

Let's look at some compounds and their measured residual percentage in human S9 fraction.
# test_description: Stability to Phase I metabolism in human S9 liver fraction
# Assay type: in vitro ADME
# test_context: human, 90 min, pH 7.4
endpoint_label: residual percentage in human S9 fraction

1. Cn1c(Sc2c(F)cc(C(=O)NO)cc2F)nnc1-c1cccc2ccccc12    78%
2. Cn1c(Sc2c(F)cc(C(=O)NO)cc2F)nnc1-c1ccc(CCN2CCCC2)nc1    80%
3. CCc1oc(-c2nnc(Sc3c(F)cc(C(=O)NO)cc3F)n2C)cc1CN1CCCC1    81%
4. COc1ccc(C(=O)N[C@@H](Cc2cscn2)c2nc(Cc3ccc(C(=O)NO)cc3)no2)cc1OC    81%

###

# tested_system: recombinant human HDAC6 (Homo sapiens)
# test_description: Enzymatic screening on recombinant human HDAC6
# Format: biochemical
# test_context: Table 2; read-out: HDAC6 IC50
Collected IC50 values appear next to each entry.
endpoint_label: IC50 (nM)

1. O=C(NO)c1ccc(Cn2nnc(-c3ccc(F)cc3)n2)cc1    7
2. CN(Cc1ccccc1)Cc1cccc(-c2nnc(Sc3c(F)cc(C(=O)NO)cc3F)n2C)c1    17
3. CN1CCN(Cc2ccc(-c3nnc(Sc4ccc(C(=O)NO)cc4)n3C)o2)CC1    11

###

# tested_system: recombinant human HDAC6 (Homo sapiens, UniProt Q9UBN7)
# Sequence (Q9UBN7 1-1215): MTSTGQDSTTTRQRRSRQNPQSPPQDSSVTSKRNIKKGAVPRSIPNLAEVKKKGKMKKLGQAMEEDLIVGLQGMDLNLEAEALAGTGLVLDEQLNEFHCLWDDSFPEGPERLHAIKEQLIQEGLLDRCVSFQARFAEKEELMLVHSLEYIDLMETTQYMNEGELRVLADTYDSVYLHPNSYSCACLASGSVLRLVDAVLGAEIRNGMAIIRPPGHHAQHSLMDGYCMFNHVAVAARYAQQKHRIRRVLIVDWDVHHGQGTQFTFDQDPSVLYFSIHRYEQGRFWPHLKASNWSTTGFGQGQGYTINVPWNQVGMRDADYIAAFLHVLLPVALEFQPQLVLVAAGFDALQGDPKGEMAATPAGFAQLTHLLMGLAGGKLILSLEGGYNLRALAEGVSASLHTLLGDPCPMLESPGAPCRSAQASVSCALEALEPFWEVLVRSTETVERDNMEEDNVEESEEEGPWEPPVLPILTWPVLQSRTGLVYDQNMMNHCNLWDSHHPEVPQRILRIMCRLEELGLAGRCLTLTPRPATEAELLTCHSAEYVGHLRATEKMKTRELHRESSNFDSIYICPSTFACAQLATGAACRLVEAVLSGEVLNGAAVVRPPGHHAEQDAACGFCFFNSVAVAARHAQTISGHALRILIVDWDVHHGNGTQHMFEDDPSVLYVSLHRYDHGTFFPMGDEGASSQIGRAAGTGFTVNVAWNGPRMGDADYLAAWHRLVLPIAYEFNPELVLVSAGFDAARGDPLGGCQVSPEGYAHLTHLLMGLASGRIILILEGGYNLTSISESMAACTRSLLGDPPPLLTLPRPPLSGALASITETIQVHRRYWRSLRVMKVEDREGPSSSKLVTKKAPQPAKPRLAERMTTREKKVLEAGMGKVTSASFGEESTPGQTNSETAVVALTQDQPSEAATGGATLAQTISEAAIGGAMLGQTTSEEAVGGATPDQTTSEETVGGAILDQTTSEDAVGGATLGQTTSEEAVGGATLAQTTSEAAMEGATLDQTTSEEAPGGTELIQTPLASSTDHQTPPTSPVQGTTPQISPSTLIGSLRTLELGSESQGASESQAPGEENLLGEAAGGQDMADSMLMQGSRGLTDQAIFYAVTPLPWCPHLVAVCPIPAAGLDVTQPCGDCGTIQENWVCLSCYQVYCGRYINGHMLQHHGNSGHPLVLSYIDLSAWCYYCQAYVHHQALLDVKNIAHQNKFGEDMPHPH
# test_description: Enzymatic screening on recombinant human HDAC6
# Assay type: biochemical
# test_context: Table 2; read-out: HDAC6 IC50
# Protocol: Enzymatic activity on recombinant human HDAC6 and HDAC3 was evaluated (Table 2) for each synthesized compound. After a period of incubation at 30° C. (incubation times vary for different isoforms and are shown in table 1) 25 μL of solution containing the substrate were added. […]
endpoint_label: IC50 (nM)

1. Cn1c(Sc2c(F)cc(C(=O)NO)cc2F)nnc1-c1ccco1 [comp. 199]    6
2. O=C(NO)c1ccc(Cn2nnc(-c3ncccn3)n2)cc1 [comp. 123]    8
3. Cn1c(Sc2c(F)cc(C(=O)NO)cc2F)nnc1-c1cccs1 [comp. 17]    9
4. Cn1c(Sc2c(F)cc(C(=O)NO)cc2F)nnc1-c1ncccc1F [comp. 180]    6
